Tested on: PfHDP1 homeodomain (GST-tagged)
METHOD SUMMARY: gcPBM binding intensity (ln(normalized median fluorescence intensity)); higher = stronger DNA binding
Whole data set: some 25,000 sequences, median “ln(normalized median fluorescence intensity)” near 6.7, cut for the highest 2% near 10. The entries come from a sample that favours the highest values as a whole.
Each entry falls into one class according to its gcPBM binding intensity (ln); the ranges are category 1 (below 7), category 2 (7 to below 9), category 3 (9 or more)

**Query** Which category does the recorded gcPBM binding intensity (ln) put TATTATTTACTTATTGCACACATATAAAATATATTT [CACACA_site9017] in?
**Result** category 3

**Query** Which category does the recorded gcPBM binding intensity (ln) put ATAAATATTGCGTGCACACACATAATATTTATATAT [CACACA_site7136] in?
**Result** category 3

**Query** Which category does the recorded gcPBM binding intensity (ln) put ATTATTCTATATGAAACATGCATACATTTGTATTTT [TGCATGCA_site823] in?
**Result** category 1

**Query** Which category does the recorded gcPBM binding intensity (ln) put TTAAGATATGTATATCGTACATGACATTAAAAATTT [XGTACX_site3352] in?
**Result** category 1

**Query** Which category does the recorded gcPBM binding intensity (ln) put CTATATAAAAAAATTGCACACATAAATATATACATA [CACACA_site8325] in?
**Result** category 3

**Query** Which category does the recorded gcPBM binding intensity (ln) put ATATATATATGTAATAGTACATATGATAGTTTGTCA [XGTACX_site1545] in?
**Result** category 2

**Query** Which category does the recorded gcPBM binding intensity (ln) put ATATATATATTTATATGTACATAATATAAAATTTCT [XGTACX_site3720] in?
**Result** category 2

**Query** Which category does the recorded gcPBM binding intensity (ln) put TCCTATATCACAAATGTGCACAGAAAAAAAAAATAT in?
**Result** category 3

**Query** Which category does the recorded gcPBM binding intensity (ln) put GAAAACGTTTGAAGTTGTACATATGTATAAAAAGAA [XGTACX_site2304] in?
**Result** category 2

**Query** Which category does the recorded gcPBM binding intensity (ln) put ACACATAAATGAATAAATAAATAAATATAAATATAA [CACACA_negctrl_site1784] in?
**Result** category 1

**Query** Which category does the recorded gcPBM binding intensity (ln) put AACATGCAAACATGCACACAGAAAAAAAAAATATAT [CACACA_site1565] in?
**Result** category 3

**Query** Which category does the recorded gcPBM binding intensity (ln) put TTATAAAAGAAAAAAAAAAAAAAAAAAAAAAAAAAA [CACACA_negctrl_site1006] in?
**Result** category 1

**Query** Which category does the recorded gcPBM binding intensity (ln) put TACAGATATTATTGCACACATATAAAATACCCCCAA [CACACA_site6014] in?
**Result** category 3

**Query** Which category does the recorded gcPBM binding intensity (ln) put TATAAATTATAAATTGCACACATATTTTTATATTTA [CACACA_site8974] in?
**Result** category 3

**Query** Which category does the recorded gcPBM binding intensity (ln) put ATTGGGTACAAATACACACACATATAAATATTAATA [CACACA_site7173] in?
**Result** category 1

**Query** Which category does the recorded gcPBM binding intensity (ln) put ATATTGACAAATATTACACACATATATATATATATA [CACACA_site4079] in?
**Result** category 3

====

Test system: PfHDP1 homeodomain (GST-tagged)
METHOD SUMMARY: gcPBM binding intensity (ln(normalized median fluorescence intensity)); higher = stronger DNA binding
The full ranking holds about 25,000 sequences; the median of “ln(normalized median fluorescence intensity)” is about 6.7, and the highest 2% start at about 10. Only a selection was taken, and the highest values are over-represented in it overall.
For each record, write down the corresponding gcPBM binding intensity (ln).
Simply state the number, no unit and no words.

**Query** Recorded gcPBM binding intensity (ln) of TCATACATTTTCCTTGCACACATTTATAATTAATGT [CACACA_site614] , please.
**Result** 8.95

**Query** Recorded gcPBM binding intensity (ln) of TAGTTGCACATGTATACACACAAAAAATATTTTATG [CACACA_site475] , please.
**Result** 10.4

**Query** Recorded gcPBM binding intensity (ln) of ATACATGTTTTATGTGCACACAAAGTTGTTATGAGG [CACACA_site4032] , please.
**Result** 10.8

**Query** Recorded gcPBM binding intensity (ln) of TATTAACAAAATTTTTAACACACAAAAAAAAAAAAA [CACACA_site8542] , please.
**Result** 6.18

**Query** Recorded gcPBM binding intensity (ln) of AATGCACAGCTCTTAGGCAAAAGTGGGTATTTACAC [GTGCAC_negctrl_site579] , please.
**Result** 8.63

**Query** Recorded gcPBM binding intensity (ln) of TCCTTTTTTTTTTATGCACACACAATTATACATTCC [CACACA_site9287] , please.
**Result** 10.5

**Query** Recorded gcPBM binding intensity (ln) of TTCCTTTAACCCTGCACACATACATACATTTATATG [CACACA_site3953] , please.
**Result** 8.51

**Query** Recorded gcPBM binding intensity (ln) of ATATATATATATATATGTACATACATACATAGAACT [XGTACX_site2214] , please.
**Result** 9.21

**Query** Recorded gcPBM binding intensity (ln) of TTTATGAAATGTTGCACACAAAAAACAACATGTTTT [CACACA_site1440] , please.
**Result** 9.63

====

Test system: PfHDP1 homeodomain (GST-tagged)
METHOD SUMMARY: gcPBM binding intensity (ln(normalized median fluorescence intensity)); higher = stronger DNA binding
Whole data set: some 25,000 sequences, median “ln(normalized median fluorescence intensity)” near 6.7, cut for the highest 2% near 10. This excerpt belongs to a sample that is enriched for the highest values.
For each record, write down the corresponding gcPBM binding intensity (ln).

**Query** Recorded gcPBM binding intensity (ln) of TAAGATGATATAGACTGTACATATTGAACTTACAAG [XGTACX_site4290] , please.
**Result** 6.29

**Query** Recorded gcPBM binding intensity (ln) of ATGTTCATTATATGCACACATATATATAAATGTAAT [CACACA_site2908] , please.
**Result** 10.2

**Query** Recorded gcPBM binding intensity (ln) of TTATGTTGTAAATGCACACATACATAAACTCAGTTT [CACACA_site5639] , please.
**Result** 10.5

**Query** Recorded gcPBM binding intensity (ln) of ATAATGTATATTATTGCACACATATATAAAATTATG [CACACA_site8280] , please.
**Result** 10.5

**Query** Recorded gcPBM binding intensity (ln) of TTATGTTGTAAATGCACACATACATATACGCAGTTT [CACACA_site3015] , please.
**Result** 9.92

**Query** Recorded gcPBM binding intensity (ln) of ATATATATATATAATGCACACATTATAAATTATGTA [CACACA_site5802] , please.
**Result** 10.6

**Query** Recorded gcPBM binding intensity (ln) of TATTTTATAATAGGCACACATATAAAAATATATATA [CACACA_site4127] , please.
**Result** 6.57

**Query** Recorded gcPBM binding intensity (ln) of ATTTTTTTATTTTGTGCACACACATAAAAATATATA [CACACA_site762] , please.
**Result** 11.4

**Query** Recorded gcPBM binding intensity (ln) of TACTTTCAAAAGATCACACATATATATATATATATA [CACACA_site5630] , please.
**Result** 9.53

**Query** Recorded gcPBM binding intensity (ln) of AATTTTATTCATTGAGCACACAAAATAAATTATCAA [CACACA_site9079] , please.
**Result** 6.73

**Query** Recorded gcPBM binding intensity (ln) of GTGTTTGAAAATAAAGCATGCAAATATATTTGAAAT [TGCATGCA_site386] , please.
**Result** 7.23

**Query** Recorded gcPBM binding intensity (ln) of TATTTAAATGGATGCACACATGCATTAAATAAAATA [CACACA_site3433] , please.
**Result** 8.59

**Query** Recorded gcPBM binding intensity (ln) of AAAAAATAGAATATGGGTACTAAAAAGATACAAACA [XGTACX_site4464] , please.
**Result** 6.84

**Query** Recorded gcPBM binding intensity (ln) of AAGGTGGGAAAAAATAGTACACAACAAAAATGTATG [XGTACX_site8741] , please.
**Result** 6.64

**Query** Recorded gcPBM binding intensity (ln) of CATTATGTCATAAATGCACACATATATATATACATA [CACACA_site8454] , please.
**Result** 9.98

**Query** Recorded gcPBM binding intensity (ln) of TTTTTATATATATGTATAAATATTTTTTCTATTTAT [XGTACX_negctrl_site606] , please.
**Result** 6.46

**Query** Recorded gcPBM binding intensity (ln) of AATATATAGAAACACACACACAAAAAAAAAAAAAAA [CACACA_site1326] , please.
**Result** 6.47

**Query** Recorded gcPBM binding intensity (ln) of CATTATGTTGTAAATGCACACATACATATACACAGT [CACACA_site8990] , please.
**Result** 9.81

**Query** Recorded gcPBM binding intensity (ln) of ATATATTTTTTAAACACACACATAAATATTTGTGTA [CACACA_site2879] , please.
**Result** 6.8
